I'd appreciate it if you could supply mortality values for the items below.
Tested on: Coptotermes formosanus
measurement_notes: Termiticidal activity against Coptotermes formosanus placed on 1 % wt/wt compound treated filter paper assessed as termite mortality measured 3 days post compound exposure
Type: functional
State the answer as a number, implicitly in %.

Param item: "Cc1ccc(C2=CC(=O)C=CC2=O)cc1" ; param system: Coptotermes formosanus; output mortality: 5

Summary: "COC1=CC(=O)C(C)=CC1=O" , Coptotermes formosanus, mortality = 18.3

// mortality (Coptotermes formosanus) for "CC1=CC(=O)C(C(C)(C)C)=CC1=O" = 5

The reported mortality value, Coptotermes formosanus, for "O=C1C(Cl)=C(Nc2cccc([N+](=O)[O-])c2)C(=O)C(Cl)=C1Nc1cccc([N+](=O)[O-])c1" reads 0

Tested on Coptotermes formosanus, the item "CC1=CC(=O)C(C)=C(C)C1=O" showed mortality equal to 0

Sample "CCCCCCCCCCCC1=C(O)C(=O)C=C(O)C1=O" , system: Coptotermes formosanus. Its mortality is 3.3
